- Tested System: TEM-2 (Escherichia coli, UniProt P62593, Q37K)
- Procedure Details: Competitive assay with nitrocefin (RSAI)
- Type: biochemical, E. coli 1725E
- From the text: It is convenient to express the results in terms of a Relative Substrate Affinity Index (RSAI) value. RSAI = Concentration of competing substrate which gives 50% inhibition of ring-opening hydrolysis of the chromogenic substrate Concentration of chromogenic substrate in the assay A high RSAI value therefore indicates a low affinity of the beta-lactamase for that competing substrate, and therefore predicts resistance of a beta-lactam competing substrate to hydrolysis by the beta-lactamase. […]
Could you please mark T for values of RSAI below 20 and F for values at or above it?

# count of solved cases: 3
CCN1CCN(C(=O)N[C@@H](C(=O)N[C@@H]2C(=O)N3C(C(=O)O)=C(CSc4nnnn4C)CS[C@H]23)c2ccc(O)cc2)C(=O)C1=O [Cefopera-zone, cefoperazone]    T
CO/N=C(\C(=O)N[C@@H]1C(=O)N2C(C(=O)O)=C(CSc3nc(=O)c(=O)[nH]n3C)CS[C@H]12)c1csc(N)n1 [RO-13 9904]    F
CC1(C)S[C@@H]2[C@H](/N=C/N3CCCCCC3)C(=O)N2[C@H]1C(=O)O [Mecil-linam, Mecillinam]    F

Now look at this entry.
Q: Consider the compound CC1(C)S[C@@H]2[C@H](NC(=O)[C@H](NC(=O)N3CCNC3=O)c3ccccc3)C(=O)N2[C@H]1C(=O)O [Azlo-cillin, Azlocillin] . Is its RSAI strictly less than 20?
Ans: T

====

- System: PSE-3
- Procedure Details: Competitive assay with nitrocefin (RSAI)
- Format: biochemical, Ps.aerug. 1920E
I'd be grateful if you could share measured RSAI for these entries.

CC1(C)S[C@@H]2[C@H](NC(=O)[C@H](NC(=O)N3CCN(S(C)(=O)=O)C3=O)c3ccccc3)C(=O)N2[C@H]1C(=O)O [Mezlo-cillin, Mezlocillin]    0.8
CC1(C)S[C@@H]2[C@H](NC(=O)[C@H](N)c3ccc(O)cc3)C(=O)N2[C@H]1C(=O)O [Amoxy-cillin, amoxycillin]    1.5
CO/N=C(\C(=O)N[C@@H]1C(=O)N2C(C(=O)O)=CCS[C@H]12)c1csc(N)n1 [Cefti-zoxime, ceftizoxime]    120
O=C(Cc1cccs1)N[C@@H]1C(=O)N2C(C(=O)[O-])=C(C[n+]3ccccc3)CS[C@H]12 [Cephalo-ridine, cephaloridine]    2.2
CO/N=C(\C(=O)N[C@@H]1C(=O)N2C(C(=O)O)=C(COC(C)=O)CS[C@H]12)c1csc(N)n1 [Cefotaxime]    100

Please report RSAI for every entry that follows.
1. Cc1nnc(SCC2=C(C(=O)O)N3C(=O)[C@@H](NC(=O)Cn4cnnn4)[C@H]3SC2)s1 [Cephalo-zolin, Cephalozolin]
2. CO/N=C(\C(=O)N[C@@H]1C(=O)N2C(C(=O)O)=C(CSc3nc(=O)c(=O)[nH]n3C)CS[C@H]12)c1csc(N)n1 [RO-13 9904]
3. CC(=O)OCC1=C(C(=O)O)N2C(=O)[C@@H](NC(=O)Cc3cccs3)[C@H]2SC1 [Cephalo-thin, Cephalothin]

Ans:
1: 3.2; 2: 36; 3: 0.76

====

- Tested System: TEM-1 (Escherichia coli, UniProt P62593)
- Procedure Details: Competitive assay with nitrocefin (RSAI)
- Type: biochemical, E. coli 2136E
- Parameters: the beta-lactamase has to be extracted from the cells for the purpose of the present invention; made in house; host or cells: E. coli 2136E (plasmid-bearing strain; crude cell extract)
I would appreciate it if you labelled entries Fulfilled when RSAI is 4 or higher, otherwise Not fulfilled.

# count of solved cases: 2
CC1(C)[C@H](C(=O)O)N2C(=O)C[C@H]2S1(=O)=O [CP 45,899]    Not fulfilled
C[C@@H](O)[C@H]1C(=O)N2C(C(=O)O)=C(SCCN=CN)C[C@H]12 [MK 0787 (N-Formimidoyl-thienamycin), N-Formimidoyl-thienamycin]    Not fulfilled

Q: RSAI >= 4 for CO/N=C(\C(=O)N[C@@H]1C(=O)N2C(C(=O)O)=C(COC(N)=O)CS[C@H]12)c1ccco1 [Cefuroxime] ?
Ans: Fulfilled

Q: Same question, O=C(Cc1cccs1)N[C@@H]1C(=O)N2C(C(=O)[O-])=C(C[n+]3ccccc3)CS[C@H]12 [Cephalo-ridine, cephaloridine] this time
Ans: Fulfilled

Q: Same question, Cc1onc(-c2ccccc2Cl)c1C(=O)N[C@@H]1C(=O)N2[C@@H]1SC(C)(C)[C@@H]2C(=O)O [Cloxacillin] this time
Ans: Not fulfilled

====

- Tested System: TEM-2 (Escherichia coli, UniProt P62593, Q37K)
- Procedure Details: Competitive assay with nitrocefin (RSAI)
- Format: biochemical, E. coli 1725E
I'd be grateful if you could share measured RSAI for these entries.
Answers are plain numbers.

Here is how some molecules turned out for RSAI.
CO/N=C(\C(=O)N[C@@H]1C(=O)N2C(C(=O)O)=CCS[C@H]12)c1csc(N)n1 [Cefti-zoxime, ceftizoxime]    1000
CO/N=C(\C(=O)N[C@@H]1C(=O)N2C(C(=O)O)=C(COC(N)=O)CS[C@H]12)c1ccco1 [Cefuroxime]    40
CC1(C)S[C@@H]2[C@H](NC(=O)[C@H](C(=O)O)c3ccsc3)C(=O)N2[C@H]1C(=O)O [Ticar-cillin, ticarcillin]    0.49

Now turn to the next molecule.
Q: Given CC1(C)S[C@@H]2[C@H](NC(=O)Cc3ccccc3)C(=O)N2[C@H]1C(=O)O [Peni-cillin G, Penicillin G] , state its recorded RSAI.
Ans: 1

====

- Tested System: UniProt:P0A1V9
- Sequence (P0A1V9 22-275): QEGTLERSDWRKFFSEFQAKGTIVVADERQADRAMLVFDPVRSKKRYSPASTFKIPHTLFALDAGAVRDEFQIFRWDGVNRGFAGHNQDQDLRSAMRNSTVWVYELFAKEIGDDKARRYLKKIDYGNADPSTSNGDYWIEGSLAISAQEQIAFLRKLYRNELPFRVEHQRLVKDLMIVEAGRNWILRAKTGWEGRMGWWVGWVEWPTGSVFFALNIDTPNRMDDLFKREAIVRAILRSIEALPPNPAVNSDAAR
- Procedure Details: Competitive assay with nitrocefin (RSAI)
- Assay type: biochemical, E. coli R46
- Design: the beta-lactamase has to be extracted from the cells for the purpose of the present invention; made in house; host or cells: E. coli carrying R46 according to the earlier reading (crude cell extract)
I would appreciate it if you labelled entries Y when RSAI is 10 or higher, otherwise N.

# count of solved cases: 3
CC1(C)S[C@@H]2[C@H](NC(=O)C(C(=O)O)c3ccccc3)C(=O)N2[C@H]1C(=O)O (stereo partly shown)    Y
CC1(C)S[C@@H]2[C@H](NC(=O)[C@H](C(=O)O)c3ccsc3)C(=O)N2[C@H]1C(=O)O    Y
CC1(C)S[C@@H]2[C@H](NC(=O)[C@H](NC(=O)N3CCN(S(C)(=O)=O)C3=O)c3ccccc3)C(=O)N2[C@H]1C(=O)O    Y

Q: RSAI >= 10 for CC1=C(C(=O)O)N2C(=O)[C@@H](NC(=O)[C@H](N)C3=CCC=CC3)[C@H]2SC1 ?
Ans: Y

Q: Same question, CC(C)(O/N=C(\C(=O)N[C@@H]1C(=O)N2C(C(=O)[O-])=C(C[n+]3ccccc3)CS[C@H]12)c1csc(N)n1)C(=O)O this time
Ans: Y

Q: Same question, CC1(C)S[C@@H]2[C@H](NC(=O)Cc3ccccc3)C(=O)N2[C@H]1C(=O)O this time
Ans: N

====

- Tested System: Chromosomal, hyper-induced beta-lactamase enzyme (Escherichia coli, UniProt P00811)
- Sequence (P00811 20-377): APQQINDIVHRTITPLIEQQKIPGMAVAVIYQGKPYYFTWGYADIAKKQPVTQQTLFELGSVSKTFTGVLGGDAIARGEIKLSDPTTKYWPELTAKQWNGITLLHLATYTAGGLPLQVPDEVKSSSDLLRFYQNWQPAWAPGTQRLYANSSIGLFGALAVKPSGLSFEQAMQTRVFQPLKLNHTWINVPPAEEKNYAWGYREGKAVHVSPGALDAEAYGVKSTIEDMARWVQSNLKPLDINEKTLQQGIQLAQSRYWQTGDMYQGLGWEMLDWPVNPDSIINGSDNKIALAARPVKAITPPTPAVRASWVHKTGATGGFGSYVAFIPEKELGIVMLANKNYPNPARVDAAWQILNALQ
- Procedure Details: Competitive assay with nitrocefin (RSAI)
- Format: biochemical, E. coli SNU35
- Set-up: Normally, therefore, the beta-lactamase has to be extracted from the cells for the purpose of the present invention; endogenous in cells; host or cells: E. coli SNU 35 (artificially produced strain)
I would appreciate it if you labelled entries satisfied when RSAI is 0.3 or higher, otherwise not satisfied.

# count of solved cases: 5
CC1(C)S[C@@H]2[C@H](NC(=O)[C@H](N)c3ccc(O)cc3)C(=O)N2[C@H]1C(=O)O    not satisfied
CO[C@@]1(NC(=O)Cc2cccs2)C(=O)N2C(C(=O)O)=C(COC(N)=O)CS[C@@H]21    not satisfied
Cc1nnc(SCC2=C(C(=O)O)N3C(=O)[C@@H](NC(=O)Cn4cnnn4)[C@H]3SC2)s1    satisfied
CC(=O)OCC1=C(C(=O)O)N2C(=O)[C@@H](NC(=O)Cc3cccs3)[C@H]2SC1    satisfied
CC1=C(C(=O)O)N2C(=O)[C@@H](NC(=O)[C@H](N)C3=CCC=CC3)[C@H]2SC1    not satisfied

Q: RSAI >= 0.3 for CO/N=C(\C(=O)N[C@@H]1C(=O)N2C(C(=O)O)=CCS[C@H]12)c1csc(N)n1 ?
Ans: satisfied

Q: Same question, CCN1CCN(C(=O)N[C@@H](C(=O)N[C@@H]2C(=O)N3C(C(=O)O)=C(CSc4nnnn4C)CS[C@H]23)c2ccc(O)cc2)C(=O)C1=O this time
Ans: satisfied

Q: Same question, CC1(C)S[C@@H]2[C@H](NC(=O)[C@H](NC(=O)N3CCNC3=O)c3ccccc3)C(=O)N2[C@H]1C(=O)O this time
Ans: not satisfied

Q: Same question, CC1(C)S[C@@H]2[C@H](NC(=O)[C@H](C(=O)O)c3ccsc3)C(=O)N2[C@H]1C(=O)O this time
Ans: not satisfied

Q: Same question, CO/N=C(\C(=O)N[C@@H]1C(=O)N2C(C(=O)O)=C(CSc3nc(=O)c(=O)[nH]n3C)CS[C@H]12)c1csc(N)n1 this time
Ans: not satisfied
